Listing of Ki toward Plasminogen (Homo sapiens, UniProt P00747), each taken from a published source.

Give the reported value of Ki for this record: O=C(CC[C@H]1CCC[C@@H](NC(=O)[C@H](Cc2ccccc2)NC(=O)OCc2ccccc2)C1=O)N[C@@H](Cc1ccccc1)C(=O)O
3000 µM

Give the reported value of Ki for this record: NC[C@H]1CC[C@H](C(=O)N[C@@H](Cc2ccccc2)c2cc(-c3ccc4c(N)n[nH]c4c3)ccn2)CC1
> 22.1 µM

Give the reported value of Ki for this record: N=C(N)c1cccc(C[C@H](NS(=O)(=O)c2cccc(NC(=O)CCN)c2)C(=O)N2CCCC[C@@H]2C(=O)O)c1
9.4 µM

Give the reported value of Ki for this record: CC(C)[C@H](NCc1ccc(C(=N)N)cc1)C(=O)[C@@H](CCCNC(=N)N)NS(=O)(=O)Cc1ccccc1
2.81 µM

Give the reported value of Ki for this record: N=C(N)c1ccc(CNC(=O)CNC(=O)[C@@H](CO)NS(=O)(=O)/C=C/c2ccccc2)cc1
140 µM

Give the reported value of Ki for this record: COc1ccc2ccc(C(=N)N)cc2c1-c1ccoc1
9.4 µM

Give the reported value of Ki for this record: N=C(N)c1ccc(Oc2cc(Oc3ccc(C(=N)N)cc3)cc(C(=O)Nc3ccc(F)cc3)c2)cc1
2.67 µM

Give the reported value of Ki for this record: CC(C)[C@@H](NS(=O)(=O)c1ccc2c(Cl)cnc(N=C(N)N)c2c1)C(=O)O
16 µM

Give the reported value of Ki for this record: N=C(N)c1cccc(C[C@H](NS(=O)(=O)c2ccc3ccccc3c2)C(=O)N2CCC(CCN)CC2)c1
1.4 µM

Give the reported value of Ki for this record: CC(C)c1cc(C(C)C)c(S(=O)(=O)N[C@@H](Cc2cccc(C(=N)N)c2)C(=O)N2CCN(C(=O)C3CCN(C(=N)N)CC3)CC2)c(C(C)C)c1
0.6 µM

Give the reported value of Ki for this record: N=C(N)c1ccc2c(C(=O)C(F)(F)F)c[nH]c2c1
> 1000 µM

Give the reported value of Ki for this record: COC(=O)[C@H]1CCCCN1C(=O)[C@H](Cc1cccc(C(=N)N)c1)NS(=O)(=O)c1cccc(NC(=O)CCN)c1
4.9 µM

Give the reported value of Ki for this record: Cc1c(C)c(S(=O)(=O)N[C@@H](Cc2cccc(C(=N)N)c2)C(=O)N2CCN(C(=O)CCN=C(N)N)CC2)c(C)c2c1OC(C)(C)C2
10.2 µM

Give the reported value of Ki for this record: N=C(N)c1ccc(CNC(=O)[C@@H]2CCCN2C(=O)[C@@H](CCC(=O)N2CCN(C(=O)OCc3ccccc3)CC2)NS(=O)(=O)Cc2ccccc2)cc1
1.16 µM

Give the reported value of Ki for this record: NCCc1ccc(CCNC(=O)N2CCN(C(=O)O[C@H]3CCC[C@@H](OC(=O)N4CCN(C(=O)NCCc5ccc(CCN)cc5)CC4)CCC3)CC2)cc1
570 µM

Give the reported value of Ki for this record: CSc1sc(C(=N)N)cc1-c1nc(-c2cccc(O)c2)cs1
32.1 µM

====

Listing of Ki toward Plasminogen (Homo sapiens), each taken from a published source.

Give reported Ki for CC(C)CC1NCCc2ccc(NC(=O)c3ccc4cc(C(=N)N)ccc4c3)cc21 (centres undefined) (Plasminogen (Homo sapiens))
1.19 µM

Give reported Ki for CC(C)(C)[C@H](NC(=O)[C@@H](NC(=O)c1cnccn1)C1CCCCC1)C(=O)N1CC2CCCC2[C@H]1C(=O)NC(CC(F)F)C(=O)C(=O)NC1CC1 (some centres undefined) (Plasminogen (Homo sapiens))
> 50 µM

Give reported Ki for N=C(N)NCCC1CCN(C(=O)[C@H](Cc2cccc(C(=N)N)c2)NS(=O)(=O)c2ccc3ccccc3c2)CC1 (Plasminogen (Homo sapiens))
20 µM

Give reported Ki for C[C@@H](NC(=O)OCc1ccc(COC(=O)N[C@H](C)C(=O)NCc2ccc(CN)cc2)cc1)C(=O)NCc1ccc(CN)cc1 (Plasminogen (Homo sapiens))
> 1000 µM
